target: T1, human Her2 (ECD)-Fc protein (human, UniProt P04626 23-652); experiment: PE-ELISA, crude extract on antigen-coated plate
T1 construct: extracellular domain; Made in HEK293F cells; also called hHer2 (ECD)-Fc antigen; Her2 (ECD)-Fc antigen; not shown: TEV restriction site at the C-terminal of hHer2 (ECD); IgG1 Fc of the pFUSE-IgG1 vector
I'd be grateful if you could share measured A405+ for these entries.
// return numeric value only (unit: A405, not printed)

Q: Output measured A405+ for this item: Nanobody No. 1 (VHH, not shown: tags (HA, His) implied by anti-HA detection and nickel column) VHH: QVQLQESGGGSVQAGETLRLSCTASGFTFDDSDMGWYRQAPGNECELVSTISSDGSTYYADSVKGRFTISQDNAKNTVYLQMNSLKPEDTAVYYCAAHPLHYELGTCAALDYWGRGTQVTVSS
Ans: 1.72

Q: Output measured A405+ for this item: Nanobody No. 9 (VHH, camel VHH from pMECs phage display vector; also called Antibody no; not shown: tags (HA, His) implied by anti-HA detection and nickel column) VHH: QVQLQESGGGSVQAGETLRLSCTASGFTFDDSDMGWYRQAPGSECELVSTISSDGNTYYSNSVKGRFTISQDNAKNTVYLQMNSLKPEDTAVYYCAADDQHYELGTCEALDYWGRGTQVTVSS
Ans: 2.15

Q: Output measured A405+ for this item: Nanobody No. 11 (VHH, also called 11; not shown: tags (HA, His) implied by anti-HA detection and nickel column) VHH: QVQLQESGGGSVQAGETLRLSCTASGFTFDDSDMGWYRQAPGNECELVSHISSGGSTYYADSVKGRFTISQDNAKNTVYLQMNSLKPEDTAVYYCAADGSNYELGTCAALDYWGRGTQVTVSS
Ans: 1.88

Q: Output measured A405+ for this item: Nanobody No. 4 (VHH, not shown: tags (HA, His) implied by anti-HA detection and nickel column) VHH: QVQLQESGGGLVQPGGSLRLSCTASRFTFDDSDMAWYRQAPGNECELVSIISSDGSTYYADSVKGRFTISLDNTKSTVYLQMNSLKPEDTAVYYCAAHPLHYELGTCAALDYWGRGTQVTVSS
Ans: 1.97

// data source = patent US20230263916A1
